Every entry's value here was drawn from patent US20260070927A1.

# Vd values compiled below
- protocolSummary: Single dose pharmacokinetics (SDPK) study in male C57BL/6J mice
- Assay type: in vivo
- conditionDetails: male, C57BL/6J, plasma; mouse, IV 1 mg/kg; read-out: Vss
Just the number please, in L/kg, no unit attached.

>>> testvalue("CN1CCCc2c3c(cccc3nn2C)-c2ccnc(n2)O[C@H]2C[C@@H](C1=O)N(c1ncnc3c1cnn3-c1ccc(F)cc1F)C2 [Example 11]")
0.8

Name the recorded Vd for COc1cc(F)ccc1-n1ncc2c(N3C[C@@H]4C[C@H]3C(=O)N(C)CCCc3c5c(cccc5nn3C)-c3ccnc(n3)N4)ncnc21 [Example 6] .
0.9

* * *

- protocolSummary: Metabolic (liver microsomal) stability assay
- conditionDetails: human liver microsomes, 1 μM test compound
# Clearance of human microsome values compiled below
Just the number please, in mL/min/kg, no unit attached.

Worked examples, 2 compounds total:
>>> testvalue("Cn1nc2cccc3c2c1CCCN(CCC(C)(C)O)C(=O)[C@@H]1C[C@@H](CN1c1ncnc2c1cnn2-c1ccc(F)cc1F)Oc1cccc-3c1")
15.6
>>> testvalue("COc1cc(F)ccc1-n1ncc2c(N3C[C@@H]4C[C@H]3C(=O)N(C)CCCc3c5c(cccc5nn3C)-c3ccnc(n3)N4)ncnc21")
15.7

Lab note: next compound to report on.
Name the recorded Clearance of human microsome for CN1CCN(CCCN2CCCc3c4c(cccc4nn3C)-c3cccc(c3)O[C@H]3C[C@@H](C2=O)N(c2ncnc4c2cnn4-c2ccc(F)cc2F)C3)CC1 .
11.5

* * *

- targetOrTestSystem: human stimulator of interferon genes (STING) (139-379) (Homo sapiens (Human), UniProt Q86WV6)
- Sequence (Q86WV6 139-379): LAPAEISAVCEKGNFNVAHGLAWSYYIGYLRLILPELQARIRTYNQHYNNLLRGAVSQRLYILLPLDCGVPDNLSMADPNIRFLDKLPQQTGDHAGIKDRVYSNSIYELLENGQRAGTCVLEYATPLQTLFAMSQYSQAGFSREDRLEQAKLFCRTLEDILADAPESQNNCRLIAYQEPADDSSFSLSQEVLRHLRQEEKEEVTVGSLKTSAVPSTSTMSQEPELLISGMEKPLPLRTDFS
readoutName: pIC50
To interpret pIC50, take it as minus log10 of a concentration measured in moles per litre.

>>> testvalue("COCCCN1CCCc2c3c(cccc3nn2C)-c2cccc(c2)O[C@H]2C[C@@H](C1=O)N(c1ncnc3c1cnn3-c1ccc(F)cc1F)C2")
7.85
>>> testvalue("Cn1nc2cccc3c2c1CCCN(CC1CC1)C(=O)[C@@H]1C[C@@H](CN1c1ncnc2c1cnn2-c1ccc(F)cc1F)Oc1cc-3ncn1")
7.90
>>> testvalue("COc1cc(F)ccc1-n1ncc2c(N3C[C@@H]4C[C@H]3C(=O)N(C)CCCc3c5c(cc(F)cc5nn3C)-c3ccnc(n3)O4)ncnc21")
7.74
>>> testvalue("Cn1nc2cccc3c2c1CCCN(CCOCc1ccncc1)C(=O)[C@@H]1C[C@@H](CN1c1ncnc2c1cnn2-c1ccc(F)cc1F)Oc1cccc-3c1")
9.70
>>> testvalue("COc1cc2nc(c1)-c1cccc3nn(C)c(c13)CCCN(C)C(=O)[C@@H]1C[C@@H](CN1c1ncnc3c1cnn3-c1ccc(F)cc1F)N2")
8.33

Name the recorded pIC50 for CN1CCCc2c3c(cccc3nn2C)-c2ccnc(n2)O[C@H]2C[C@@H](C1=O)N(c1ncnc3c1cnn3-c1ccc(F)cc1F)C2 .
7.67

Do the same for Cn1cnc(CN2CCCc3c4c(cccc4nn3C)-c3cccc(c3)O[C@H]3C[C@@H](C2=O)N(c2ncnc4c2cnn4-c2ccc(F)cc2F)C3)n1 please
8.51

Do the same for Cn1nc2cc(F)cc3c2c1CCCN(CCN1CCOCC1)C(=O)[C@@H]1C[C@@H](CN1c1ncnc2c1cnn2-c1ccc(F)cc1F)Oc1cccc-3c1 please
7.74

Do the same for CN1CCCc2c3c(cccc3nn2C)-c2cccc(n2)O[C@H]2C[C@@H](C1=O)N(c1ncnc3c1cnn3-c1ccc(F)cc1F)C2 please
7.75

Do the same for Cn1nc2cccc3c2c1CCCN(CCCn1cncn1)C(=O)[C@@H]1C[C@@H](CN1c1ncnc2c1cnn2-c1ccc(F)cc1F)Oc1cccc-3c1 please
8.82

Do the same for COc1cc2nc(c1)-c1cccc3nn(C)c(c13)CCCN(C)C(=O)[C@@H]1C[C@@H](CN1c1ncnc3c1cnn3-c1ccc(F)cc1OC)N2 please
8.32
